# System: SW-620 colon
# METHOD NOTES: NCI tumour cell line growth inhibition, 48 h
Property: TGI; scope: individual compounds

[
  {
    "STRUCTURE STRING": "N#Cc1cccc(N2C(=O)c3c(c(-c4ccccc4)c(-c4ccc(Sc5ccc(-c6c(-c7ccccc7)c7c(c(-c8ccccc8)c6-c6ccccc6)C(=O)N(c6cccc(C#N)c6)C7=O)cc5)cc4)c(-c4ccccc4)c3-c3ccccc3)C2=O)c1",
    "STUDY SYSTEM": "SW-620 colon",
    "ENDPOINT": "TGI",
    "READOUT VALUE": "> 100 µM"
  },
  {
    "STRUCTURE STRING": "Cc1c2cc[nH]c(C(F)(F)F)c2cc2c1nc1ccccc12",
    "STUDY SYSTEM": "SW-620 colon",
    "ENDPOINT": "TGI",
    "READOUT VALUE": "> 125 µM"
  },
  {
    "STRUCTURE STRING": "COC(=O)[C@H](Cc1ccccc1)NC(=O)c1ccc(CNC(=O)/C=C/c2ccc(-c3ccccc3)cc2)cc1",
    "STUDY SYSTEM": "SW-620 colon",
    "ENDPOINT": "TGI",
    "READOUT VALUE": "> 100 µM"
  }
]

Proceeding to the next compound to report its TGI.
Query: Given the compound O=c1cc(CNC2CCCC2)[nH]c(=O)[nH]1 , what is its reported TGI?
Reply: > 100 µM

* * *

Each entry below lists one item and its recorded TGI value.
# System: U251 CNS
# METHOD NOTES: NCI tumour cell line growth inhibition, 48 h

[
  {
    "MOLECULE": "Cc1ccc(S(=O)(=O)c2scc(-c3ccccc3)c2C)cc1",
    "READOUT VALUE": "> 100 µM"
  },
  {
    "MOLECULE": "Cc1c2cnccc2c(C)c2c1c1cc(C3OCCCO3)ccc1n2C",
    "READOUT VALUE": "1.33 µM"
  },
  {
    "MOLECULE": "CN(C)c1ccc2c(c1)C(=O)N(OS(=O)(=O)c1ccc([N+](=O)[O-])cc1)C2=O",
    "READOUT VALUE": "35.1 µM"
  },
  {
    "MOLECULE": "C(=Nc1ccccc1)C1CCCC[N-]1.C(=Nc1ccccc1)C1CCCC[N-]1.[Cu+2].[O-][Cl+3]([O-])([O-])O (configuration not stated)",
    "READOUT VALUE": "30.4 µM"
  },
  {
    "MOLECULE": "CCOC(=O)CCCn1nnc(C(=O)OCC)c1C(=O)OCC",
    "READOUT VALUE": "> 100 µM"
  },
  {
    "MOLECULE": "CC1=C([Se]CC(OC(=O)[C@@H](CSSC(C)(C)C)NC(=O)OC(C)(C)C)C(=O)NC(C)(C)C)C(=O)c2ccccc2C1=O (some centres not stated)",
    "READOUT VALUE": "1.94 µM"
  },
  {
    "MOLECULE": "COc1cc(/C(Cl)=C/C=C/C(=O)c2c(C)[n+]([O-])c3ccc(Cl)cc3[n+]2[O-])cc(OC)c1OC",
    "READOUT VALUE": "10.5 µM"
  },
  {
    "MOLECULE": "NNC(=S)N/N=C(\\CCCC(=O)NCCc1ccccc1)CC(=O)c1ccccc1",
    "READOUT VALUE": "> 100 µM"
  }
]

Let us move to another entry and its TGI.
Query: Which TGI reading was recorded for the molecule CCC(C)CN1C(=O)NC(C)(Cc2ccccc2)C1=O (configuration not stated) ?
Reply: > 100 µM
